Molecular target: cloned human μ receptor (Homo sapiens)
Sequence (P35372 whole entry): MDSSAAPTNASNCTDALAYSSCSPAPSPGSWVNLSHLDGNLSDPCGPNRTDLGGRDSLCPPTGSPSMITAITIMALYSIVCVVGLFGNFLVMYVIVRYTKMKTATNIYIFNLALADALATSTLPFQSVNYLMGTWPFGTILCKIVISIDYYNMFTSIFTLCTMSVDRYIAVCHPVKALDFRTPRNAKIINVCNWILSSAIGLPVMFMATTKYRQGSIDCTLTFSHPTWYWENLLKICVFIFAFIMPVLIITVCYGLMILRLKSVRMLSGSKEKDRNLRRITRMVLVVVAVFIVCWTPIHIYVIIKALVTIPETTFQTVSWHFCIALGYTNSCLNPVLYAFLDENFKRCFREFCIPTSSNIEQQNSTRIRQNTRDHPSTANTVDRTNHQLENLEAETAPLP
Test: μ receptor binding assay, displacement of 125I-FK33824
pIC50: −log10 of the molar value.
Please go through the items and note down their pIC50.

Entry CCN(CC)C(=O)c1ccc(C(=C2CCN(Cc3ccco3)CC2)c2cccc(NC(=O)OC)c2)cc1 [Compound 2] : reported pIC50 = ?
6.30 to 7.20

Entry CCN(CC)C(=O)c1ccc(C(=C2CCN(Cc3cccs3)CC2)c2cccc(NC(=O)OC)c2)cc1 [Compound 1] : reported pIC50 = ?
6.30 to 7.20

Entry CCN(CC)C(=O)c1ccc(C(=C2CCN(Cc3ccccc3)CC2)c2cccc(NC(=O)OC)c2)cc1 [Compound 3] : reported pIC50 = ?
7.54

Entry CCN(CC)C(=O)c1ccc(C(=C2CCN(Cc3cncs3)CC2)c2cccc(NC(=O)OC)c2)cc1 [Compound 5] : reported pIC50 = ?
6.30 to 7.20

---

reportedProperty: IC50 (nM)
Express it in nM; write the number only.

Recorded IC50 for CCN(CC)C(=O)c1ccc(C(=C2CCN(Cc3ccccc3)CC2)c2cccc(NC(=O)OC)c2)cc1 with UniProt:P41145, please?
188

---

Biological target: human δ receptor (Homo sapiens, UniProt P41143)
Sequence (P41143 whole entry): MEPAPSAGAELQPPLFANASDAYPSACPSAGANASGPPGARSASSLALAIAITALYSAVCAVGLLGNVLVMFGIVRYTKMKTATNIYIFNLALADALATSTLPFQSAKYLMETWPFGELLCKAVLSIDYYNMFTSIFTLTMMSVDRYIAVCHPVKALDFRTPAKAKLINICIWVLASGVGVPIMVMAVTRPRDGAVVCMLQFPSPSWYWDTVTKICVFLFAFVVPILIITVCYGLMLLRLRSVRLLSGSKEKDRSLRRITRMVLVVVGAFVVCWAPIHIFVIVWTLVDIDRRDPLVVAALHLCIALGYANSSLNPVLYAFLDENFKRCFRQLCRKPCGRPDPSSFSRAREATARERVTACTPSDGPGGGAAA
Assay: GTP[γ]35S binding functional assay, HEK-293S membranes
pEC50: −log10 of the molar value.
reportedProperty: pEC50

Recorded pEC50 for CCN(CC)C(=O)c1ccc(C(=C2CCN(Cc3cccs3)CC2)c2cccc(NC(=O)OC)c2)cc1 with human δ receptor (Homo sapiens, UniProt P41143), please?
8.22 to 8.74

Recorded pEC50 for CCN(CC)C(=O)c1ccc(C(=C2CCN(Cc3ccco3)CC2)c2cccc(NC(=O)OC)c2)cc1 with human δ receptor (Homo sapiens, UniProt P41143), please?
8.22 to 8.74

Recorded pEC50 for CCN(CC)C(=O)c1ccc(C(=C2CCN(Cc3ccccc3)CC2)c2cccc(NC(=O)OC)c2)cc1 with human δ receptor (Homo sapiens, UniProt P41143), please?
9.21

Recorded pEC50 for CCN(CC)C(=O)c1ccc(C(=C2CCN(Cc3cncs3)CC2)c2cccc(NC(=O)OC)c2)cc1 with human δ receptor (Homo sapiens, UniProt P41143), please?
8.22 to 8.74

The reported numbers originate from patent US20060116399A1.
